The origin of these recorded values is patent US8648116B2.

test: Concentration-time profiles after a single dose of capsules; parameters: species or system human cancer patients; conditions: human, in vivo, oral; capsules of example 95A, 2 mg dose, Day 1; read-out: AUC0-12hr
attribute.measured: AUC(0-t) (ng·h/mL)

1) COc1cc(F)c(F)c(Nc2ccc(I)cc2F)c1NS(=O)(=O)C1(C[C@H](O)CO)CC1	0.7

====

test: Concentration-time profiles after a single dose of capsules; set-up: species or system human cancer patients; conditions: human, in vivo, oral, 4 mg, capsules of example 95A, 4 mg dose, Day 1
attribute.measured: Tmax (h)

1. COc1cc(F)c(F)c(Nc2ccc(I)cc2F)c1NS(=O)(=O)C1(C[C@H](O)CO)CC1 [Compound A]	1.5

====

assay: Plasma concentrations in mice (Example 94F); format: in vivo, nu/nu mice; details: female, nu/nu, mouse, plasma, po, 25 mg/kg, A375-bearing nu/nu mice
attribute.measured: Cmax (ng/mL)

1. COc1cc(F)c(F)c(Nc2ccc(I)cc2F)c1NS(=O)(=O)C1(C[C@H](O)CO)CC1	10200

====

experiment: Concentration-time profiles after a single dose of capsules; parameters: species or system human cancer patients; settings: human, in vivo, oral; capsules of example 95A, 2 mg dose, Day 35
attribute.measured: AUC

1) COc1cc(F)c(F)c(Nc2ccc(I)cc2F)c1NS(=O)(=O)C1(C[C@H](O)CO)CC1	2.07 ng·h/mL

====

test: Concentration-time profiles after a single dose of capsules; parameters: species or system human cancer patients; conditions: human, in vivo, oral, 2 mg, capsules of example 95A, 2 mg dose, Day 35
attribute.measured: Tmax (h)

1) COc1cc(F)c(F)c(Nc2ccc(I)cc2F)c1NS(=O)(=O)C1(C[C@H](O)CO)CC1	2

====

experiment: Pharmacokinetic parameters in Balb/c mice (Example 94D); format: in vivo; details: mouse, in vivo, oral; 25 mg/kg, Balb/c mice; read-out: Cmax
attribute.measured: Cmax (ng/mL)

1) COc1cc(F)c(F)c(Nc2ccc(I)cc2F)c1NS(=O)(=O)C1(C[C@H](O)CO)CC1 [Compound A]	9850

====

system: human tumor cell lines; experiment: In vitro cancer screen (SRB; GI50, TGI, LC50); settings: read-out: LC50; HT29 (Colon Cancer)
attribute.measured: CC50 (µM)

1. COc1cc(F)c(F)c(Nc2ccc(I)cc2F)c1NS(=O)(=O)C1(C[C@H](O)CO)CC1	29.5

====

experiment: Concentration-time profiles after a single dose of capsules; set-up: species or system human cancer patients; settings: human, in vivo, oral, 4 mg, capsules of example 95A, 4 mg dose, Day 35
attribute.measured: Tmax (h)

1. COc1cc(F)c(F)c(Nc2ccc(I)cc2F)c1NS(=O)(=O)C1(C[C@H](O)CO)CC1	1

====

assay: Plasma concentrations in mice (Example 94F); assay type: in vivo, nu/nu mice; details: female, nu/nu, mouse, plasma, po, 12.5 mg/kg, A375-bearing nu/nu mice
attribute.measured: AUC (ng·h/mL)

1) COc1cc(F)c(F)c(Nc2ccc(I)cc2F)c1NS(=O)(=O)C1(C[C@H](O)CO)CC1	78000

====

assay: Pharmacokinetic parameters in Balb/c mice (Example 94D); type: in vivo; conditions: mouse, in vivo, oral; 25 mg/kg, Balb/c mice; read-out: AUC
attribute.measured: AUC (µg·h/mL)

1. COc1cc(F)c(F)c(Nc2ccc(I)cc2F)c1NS(=O)(=O)C1(C[C@H](O)CO)CC1 [Compound A]	55

====

test system: pERK in brain; assay: MEK inhibition (pERK, Western blot) against plasma concentration, brain; assay type: in vivo, nu/nu mice; settings: Mus musculus; plasma concentration; Colo205-bearing nu/nu mice, single dose 2.5-25 mg/kg
attribute.measured: EC50

1) COc1cc(F)c(F)c(Nc2ccc(I)cc2F)c1NS(=O)(=O)C1(C[C@H](O)CO)CC1	> 5 µM
